Values were extracted from patent US20150086555A1.

Give log10 of Trimeric HA Binding: RLU for every item shown.
- System Name: recombinant homotrimeric HA A/Japan/305/57 H2N2 (Influenza A virus A/Japan/305/1957(H2N2))
- Assay Text: protein microarray, purified IgG, trimeric HA
- Assay Setup: remark: other sources report otherwise
// do not treat as linear: log10 of Trimeric HA Binding: RLU, unit RLU

TCN-546 (5089_L08) (antibody, V domains shown) VH: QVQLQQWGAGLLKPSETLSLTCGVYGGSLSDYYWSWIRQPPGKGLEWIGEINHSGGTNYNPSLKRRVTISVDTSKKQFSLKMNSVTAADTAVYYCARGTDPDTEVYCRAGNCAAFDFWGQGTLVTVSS VL: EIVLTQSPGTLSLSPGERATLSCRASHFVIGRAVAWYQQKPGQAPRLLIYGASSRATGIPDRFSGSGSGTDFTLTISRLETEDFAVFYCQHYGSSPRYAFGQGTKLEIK: 2.70

Report log10 of Trimeric HA Binding: RLU for every entry below.
1. TCN-541 (5062_M11) (antibody, V domains shown) VH: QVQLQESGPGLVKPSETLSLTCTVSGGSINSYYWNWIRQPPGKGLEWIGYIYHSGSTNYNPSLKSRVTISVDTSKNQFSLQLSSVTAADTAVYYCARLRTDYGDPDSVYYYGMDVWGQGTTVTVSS VL: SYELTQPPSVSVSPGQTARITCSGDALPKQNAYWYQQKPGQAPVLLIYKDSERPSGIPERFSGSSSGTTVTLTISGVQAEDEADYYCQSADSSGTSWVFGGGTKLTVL
2. TCN-538 (3206_O17) (antibody, V domains shown) VH: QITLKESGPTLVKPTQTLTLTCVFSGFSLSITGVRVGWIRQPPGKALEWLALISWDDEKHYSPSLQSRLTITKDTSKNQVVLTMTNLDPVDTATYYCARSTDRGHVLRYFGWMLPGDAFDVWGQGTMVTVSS VL: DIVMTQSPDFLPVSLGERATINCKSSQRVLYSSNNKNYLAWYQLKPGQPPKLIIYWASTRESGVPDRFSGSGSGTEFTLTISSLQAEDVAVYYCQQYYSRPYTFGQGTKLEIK
3. TCN-528 (5087_P17) (antibody, V domains shown) VH: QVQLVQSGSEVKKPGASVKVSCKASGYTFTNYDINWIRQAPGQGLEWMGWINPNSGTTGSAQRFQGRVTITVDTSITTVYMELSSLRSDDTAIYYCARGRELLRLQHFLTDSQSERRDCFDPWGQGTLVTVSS VL: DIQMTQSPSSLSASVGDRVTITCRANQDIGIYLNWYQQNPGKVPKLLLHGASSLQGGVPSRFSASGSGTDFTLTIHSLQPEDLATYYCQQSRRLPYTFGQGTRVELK
4. TCN-558 (5248_H10b) (antibody, V domains shown) VH: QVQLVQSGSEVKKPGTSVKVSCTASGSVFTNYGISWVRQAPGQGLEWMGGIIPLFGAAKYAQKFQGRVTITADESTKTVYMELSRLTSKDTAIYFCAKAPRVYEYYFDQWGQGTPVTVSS VL: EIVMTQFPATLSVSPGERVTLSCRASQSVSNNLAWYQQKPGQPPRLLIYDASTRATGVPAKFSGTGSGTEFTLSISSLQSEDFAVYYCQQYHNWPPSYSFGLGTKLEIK
5. TCN-526 (5084_C17) (antibody, V domains shown) VH: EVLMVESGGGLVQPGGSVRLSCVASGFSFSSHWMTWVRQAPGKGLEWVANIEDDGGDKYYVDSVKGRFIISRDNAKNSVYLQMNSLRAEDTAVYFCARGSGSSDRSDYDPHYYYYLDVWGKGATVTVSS VL: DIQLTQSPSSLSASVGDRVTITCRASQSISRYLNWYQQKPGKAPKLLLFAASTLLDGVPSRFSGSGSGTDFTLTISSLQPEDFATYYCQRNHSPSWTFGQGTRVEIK
6. TCN-527 (5086_C06) (antibody, V domains shown) VH: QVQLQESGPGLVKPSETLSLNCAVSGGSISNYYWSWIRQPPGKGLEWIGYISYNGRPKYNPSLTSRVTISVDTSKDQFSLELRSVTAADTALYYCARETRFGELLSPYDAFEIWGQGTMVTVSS VL: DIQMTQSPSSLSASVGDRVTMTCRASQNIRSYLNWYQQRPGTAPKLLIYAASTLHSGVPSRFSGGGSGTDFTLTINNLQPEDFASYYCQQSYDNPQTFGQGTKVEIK

Key:
1: 2.97; 2: 4.31; 3: 4.48; 4: 4.43; 5: 2.81; 6: 4.43

Report log10 of Trimeric HA Binding: RLU for every entry below.
1. TCN-545 (5082_I15) (antibody, V domains shown) VH: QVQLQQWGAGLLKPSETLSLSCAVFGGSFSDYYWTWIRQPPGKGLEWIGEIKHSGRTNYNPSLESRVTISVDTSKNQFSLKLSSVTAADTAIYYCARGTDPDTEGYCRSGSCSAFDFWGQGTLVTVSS VL: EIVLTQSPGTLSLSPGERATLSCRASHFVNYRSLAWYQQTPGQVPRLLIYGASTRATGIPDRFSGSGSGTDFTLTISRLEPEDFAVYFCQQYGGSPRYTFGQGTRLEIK
2. TCN-522 (3212_I12) (antibody, V domains shown) VH: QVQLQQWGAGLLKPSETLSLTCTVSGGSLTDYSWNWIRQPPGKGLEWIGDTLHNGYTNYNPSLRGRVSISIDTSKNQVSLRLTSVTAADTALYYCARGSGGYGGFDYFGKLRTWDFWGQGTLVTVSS VL: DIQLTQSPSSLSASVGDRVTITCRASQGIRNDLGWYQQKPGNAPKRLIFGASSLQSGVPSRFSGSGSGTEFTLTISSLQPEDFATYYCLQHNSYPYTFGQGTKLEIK
3. TCN-550 (5096_F06) (antibody, V domains shown) VH: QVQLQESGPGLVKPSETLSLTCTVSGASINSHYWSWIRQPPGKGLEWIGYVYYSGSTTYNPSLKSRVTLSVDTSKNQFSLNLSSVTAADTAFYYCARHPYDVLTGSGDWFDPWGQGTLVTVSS VL: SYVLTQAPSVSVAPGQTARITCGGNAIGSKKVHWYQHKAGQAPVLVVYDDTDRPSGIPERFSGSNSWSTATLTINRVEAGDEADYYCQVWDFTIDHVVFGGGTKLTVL

Key:
1. 3.15
2. 3.99
3. 2.70
